molecular target: FimHtrCl#4 (Escherichia coli, UniProt P08191, G94E/N91S/S99N/V48A); construct: coding for the lectin domain of FimH (residues 1-158) with a C-terminal 6-histidine tag; made in house; host or cells: E. coli HB101 (lacking the fim operon), periplasmic extract, plasmid pMAS146; assay: biochemical; format: binding, E. coli UPEC (Cl#4) strain; details: KD CI#4, Table 3, [3H]-mannose displacement assay (mannose measured directly)
Sequence (P08191 22-179 V48A/N91S/G94E/S99N): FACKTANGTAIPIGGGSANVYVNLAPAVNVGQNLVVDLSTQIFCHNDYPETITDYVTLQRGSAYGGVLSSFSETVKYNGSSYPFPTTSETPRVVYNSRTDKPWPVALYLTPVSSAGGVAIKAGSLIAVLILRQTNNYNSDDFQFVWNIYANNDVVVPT
Property measured: Kd

Dear colleague, I am looking for the recorded Kd of the following compound: OC[C@H]1O[C@H](O)[C@@H](O)[C@@H](O)[C@@H]1O 10.7 µM

----------
target: FimHtrJ96 (Escherichia coli, UniProt P08191); construct: coding for the lectin domain of FimH (residues 1-158) with a C-terminal 6-histidine tag; made in house; host or cells: E. coli HB101 (lacking the fim operon), periplasmic extract, plasmid pPKL241; test: biochemical; format: binding, uropathogenic E. coli strain J96; conditions: read-out: KD J96; Table 3, [3H]-mannose displacement assay (mannose measured directly)
Sequence (P08191 22-179): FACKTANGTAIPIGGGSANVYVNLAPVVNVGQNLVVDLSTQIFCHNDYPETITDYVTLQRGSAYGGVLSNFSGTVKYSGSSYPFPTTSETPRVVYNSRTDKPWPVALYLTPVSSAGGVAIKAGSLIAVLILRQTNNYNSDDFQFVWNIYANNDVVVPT
Property measured: Kd (µM)
Record the value in µM, omitting the unit from your answer.

Dear colleague, I am looking for the recorded Kd of the following compound: OC[C@H]1O[C@H](O)[C@@H](O)[C@@H](O)[C@@H]1O [Mannose, α-D-mannose] 2.3

----------
Biological target: FimHtrJ96 (Escherichia coli)
Construct: coding for the lectin domain of FimH (residues 1-158) with a C-terminal 6-histidine tag; made in house; host or cells: E. coli HB101 (lacking the fim operon), periplasmic extract, plasmid pPKL241
Test: biochemical
Format: binding, uropathogenic E. coli strain J96
Details: Table 1, O1 alkyl and aryl mannosides; SPR and displacement binding experiments
Protocol: To measure the dissociation constant for FimH:alkyl or aryl-mannoside binding, two different binding assays were developed. The first binding assay uses [^3H]-mannose. The amount of radioactively labeled mannose bound to FimHtrJ96 was measured at six different concentrations of [^3H]-mannose, and a hyperbolic curve fitted to the resulting data (FIG. 1A). FimHtrJ96 corresponds to the carbohydrate (mannose) binding domain of FimH from the uropathogenic E. coli strain J96. […]
Property measured: pKd
Please keep in mind that pKd is minus log10 of the molar concentration; only the number is needed.

Dear colleague, I am looking for the recorded pKd of the following compound: OC[C@H]1O[C@H](O)[C@@H](O)[C@@H](O)[C@@H]1O [Mannose, α-D-mannose] 5.64

----------
target: FimHtrJ96 (Escherichia coli, UniProt P08191); construct: coding for the lectin domain of FimH (residues 1-158) with a C-terminal 6-histidine tag; made in house; host or cells: E. coli HB101 (lacking the fim operon), periplasmic extract, plasmid pPKL241; assay: biochemical; assay type: binding, uropathogenic E. coli strain J96; settings: Table 3, calculated from KD
Some compounds, each annotated with its measured ΔG° J96.
Form field: result (number plus unit)

Worked examples, 5 compounds total:
- Compound: "OC[C@H]1O[C@H](OC[C@H]2O[C@H](OC[C@H]3OC(O)[C@@H](O)[C@@H](O)[C@@H]3O)[C@@H](O)[C@@H](O)[C@@H]2O)[C@@H](O)[C@@H](O)[C@@H]1O (stereo partly drawn) [man-(1,6)-man-(1,6)-man]"
  ΔG° J96: "-8.3 kcal/mol"
- Compound: "OC[C@H]1O[C@H](O)[C@@H](O)[C@@H](O)[C@@H]1O [Mannose, α-D-mannose]"
  ΔG° J96: "-7.6 kcal/mol"
- Compound: "OC[C@H]1O[C@H](O[C@@H]2[C@H](O)[C@@H](OC[C@H]3OC(O)[C@@H](O)[C@@H](O)[C@@H]3O)O[C@H](CO)[C@H]2O)[C@@H](O)[C@@H](O)[C@@H]1O (stereo partly drawn) [man-(1,3)-man-(1,6)-man]"
  ΔG° J96: "-8.6 kcal/mol"
- Compound: "OC[C@H]1O[C@H](O[C@@H]2[C@@H](O[C@@H]3C(O)O[C@H](CO)[C@@H](O)[C@@H]3O)O[C@H](CO)[C@@H](O)[C@@H]2O)[C@@H](O)[C@@H](O)[C@@H]1O (stereo partly drawn) [man-(1,2)-man-(1,2)-man]"
  ΔG° J96: "-8.2 kcal/mol"
- Compound: "OC[C@H]1O[C@H](O[C@@H]2[C@@H](O[C@H]3[C@H](O)[C@@H](CO)OC(O)[C@H]3O)O[C@H](CO)[C@@H](O)[C@@H]2O)[C@@H](O)[C@@H](O)[C@@H]1O (stereo partly drawn) [man-(1,2)-man-(1,3)-man]"
  ΔG° J96: "-8.1 kcal/mol"

// moving on: another record for ΔG° J96
Can you look up ΔG° J96 on FimHtrJ96 (Escherichia coli, UniProt P08191) for OC[C@H]1O[C@H](O[C@@H]2[C@@H](OC[C@H]3OC(O)[C@@H](O)[C@@H](O)[C@@H]3O)O[C@H](CO)[C@@H](O)[C@@H]2O)[C@@H](O)[C@@H](O)[C@@H]1O (stereo partly drawn) [man-(1,2)-man-(1,6)-man] ? -8.6 kcal/mol

----------
target: FimHtrJ96 (Escherichia coli, UniProt P08191); construct: coding for the lectin domain of FimH (residues 1-158) with a C-terminal 6-histidine tag; made in house; host or cells: E. coli HB101 (lacking the fim operon), periplasmic extract, plasmid pPKL241; test: biochemical; type: binding, uropathogenic E. coli strain J96; conditions: Table 3, [3H]-mannose displacement assay (mannose measured directly); read-out: KD J96
Property measured: Kd (nM)
Record the value in nM, omitting the unit from your answer.

Worked examples, 4 compounds total:
- Compound: "OC[C@H]1O[C@H](O[C@@H]2[C@@H](OC[C@H]3OC(O)[C@@H](O)[C@@H](O)[C@@H]3O)O[C@H](CO)[C@@H](O)[C@@H]2O)[C@@H](O)[C@@H](O)[C@@H]1O (some centres unmarked) [man-(1,2)-man-(1,6)-man]"
  Property measured: "Kd"
  Measured number: 830
- Compound: "OC[C@H]1O[C@H](O[C@@H]2[C@@H](O[C@@H]3C(O)O[C@H](CO)[C@@H](O)[C@@H]3O)O[C@H](CO)[C@@H](O)[C@@H]2O)[C@@H](O)[C@@H](O)[C@@H]1O (some centres unmarked) [man-(1,2)-man-(1,2)-man]"
  Property measured: "Kd"
  Measured number: 1600
- Compound: "OC[C@H]1O[C@H](O[C@@H]2[C@@H](O[C@H]3[C@H](O)[C@@H](CO)OC(O)[C@H]3O)O[C@H](CO)[C@@H](O)[C@@H]2O)[C@@H](O)[C@@H](O)[C@@H]1O (some centres unmarked) [man-(1,2)-man-(1,3)-man]"
  Property measured: "Kd"
  Measured number: 1800
- Compound: "OC[C@H]1O[C@H](O[C@@H]2[C@H](O)[C@@H](OC[C@H]3OC(O)[C@@H](O)[C@@H](O)[C@@H]3O)O[C@H](CO)[C@H]2O)[C@@H](O)[C@@H](O)[C@@H]1O (some centres unmarked) [man-(1,3)-man-(1,6)-man]"
  Property measured: "Kd"
  Measured number: 485

// moving on: another record for Kd
Dear colleague, I am looking for the recorded Kd of the following compound: OC[C@H]1O[C@H](OC[C@H]2O[C@H](OC[C@H]3OC(O)[C@@H](O)[C@@H](O)[C@@H]3O)[C@@H](O)[C@@H](O)[C@@H]2O)[C@@H](O)[C@@H](O)[C@@H]1O (some centres unmarked) [man-(1,6)-man-(1,6)-man] 1400

----------
molecular target: FimHtrCl#4 (Escherichia coli, UniProt P08191, G94E/N91S/S99N/V48A); construct: coding for the lectin domain of FimH (residues 1-158) with a C-terminal 6-histidine tag; made in house; host or cells: E. coli HB101 (lacking the fim operon), periplasmic extract, plasmid pMAS146; test: biochemical; type: binding, E. coli UPEC (Cl#4) strain; settings: KD; mannose binding measured directly, FimHtrCl#4
Property measured: Kd
Form field: result (number plus unit)

Dear colleague, I am looking for the recorded Kd of the following compound: OC[C@H]1O[C@H](O)[C@@H](O)[C@@H](O)[C@@H]1O 11 µM

----------
target: FimHtrJ96 (Escherichia coli); construct: coding for the lectin domain of FimH (residues 1-158) with a C-terminal 6-histidine tag; made in house; host or cells: E. coli HB101 (lacking the fim operon), periplasmic extract, plasmid pPKL241; assay: biochemical; format: binding, uropathogenic E. coli strain J96; conditions: Table 2, calculated from KD
Some compounds, each annotated with its measured ΔG°.
Record the value in kcal/mol, omitting the unit from your answer.

Worked examples, 3 compounds total:
- Structure as smiles: "OC[C@H]1O[C@H](O)C[C@@H](O)[C@@H]1O"
  Unit name: "kcal/mol"
  ΔG°: -4.8
- Structure as smiles: "O=C[C@H](O)[C@@H](O)[C@@H](O)[C@H](O)CO"
  Unit name: "kcal/mol"
  ΔG°: -1.4
- Structure as smiles: "O=C(CO)[C@@H](O)[C@H](O)[C@H](O)CO"
  Unit name: "kcal/mol"
  ΔG°: -6.1

// moving on: another record for ΔG°
Can you look up ΔG° on FimHtrJ96 (Escherichia coli) for OC[C@H]1O[C@@](CO)(O[C@H]2O[C@H](CO)[C@@H](O)[C@H](O)[C@H]2O)[C@@H](O)[C@@H]1O ? -2.6
